System: M. tuberculosis clinical isolate 13946
assay_notes: microbe, parasite or virus in culture
Type: cell-based
measurement_conditions: Mycobacterium tuberculosis, read-out: MIC 13946
Labelling: MIC reported below 0.4 µg/mL becomes Satisfied; at or above becomes Not satisfied.

1) CCOC(=O)NC(=O)c1ccsc1NC(=O)c1coc(C(=O)N2CCCCC2)c1 [Compound 24k] :: Not satisfied
2) COC(=O)NC(=O)c1ccsc1NC(=O)c1ccc(C(=O)N2CCCCC2)c(F)c1 [Compound 25b] :: Satisfied
3) CCOC(=O)NC(=O)c1ccsc1NC(=O)c1ccc(C(=O)N2CCCCC2)s1 [Compound 24j] :: Satisfied
4) CCOC(=O)NC(=O)c1ccsc1NC(=O)c1nc2ccccc2s1 [TCA1, reference compound] :: Not satisfied

Task item: Consider the compound CCOC(=O)NC(=O)c1ccsc1NC(=O)c1ccc(C(=O)N2CCCCC2)c(F)c1 [Compound 24f] . Is its MIC strictly less than 0.4 µg/mL?
Reply: Satisfied

Task item: Consider the compound O=C(Nc1sccc1C(=O)Nc1nccc(C(F)(F)F)n1)c1ccc(C(=O)N2CCCCC2)cc1 [Compound 25l] . Is its MIC strictly less than 0.4 µg/mL?
Reply: Not satisfied

Task item: Consider the compound NNC(=O)c1ccncc1 [INH, isoniazid, reference compound] . Is its MIC strictly less than 0.4 µg/mL?
Reply: Not satisfied

Task item: Consider the compound CCOC(=O)NC(=O)c1ccsc1NC(=O)c1ccc(C(=O)N2CCCCC2)cc1 [Compound 23j] . Is its MIC strictly less than 0.4 µg/mL?
Reply: Satisfied

Task item: Consider the compound COC(=O)NC(=O)c1ccsc1NC(=O)c1ccc(C(=O)N2CCCCC2)cc1 [Compound 25a] . Is its MIC strictly less than 0.4 µg/mL?
Reply: Satisfied

Source: paper PMC8154581
